molecular target: T1, Western Reserve B5 on cells infected with VVddeGFP Western Reserve virus (Vaccinia virus, Western Reserve strain, UniProt Q01227 18-317); experiment: flow cytometry, SKOV3 cells infected with WR VV
T1 construct: also called VV B5; WR
Quantity kind: pEC50
Scale note: pEC50 = -log10(concentration in M).

1. A048-H2L2 (antibody, V domains shown) VH: EVQLLESGGGLVQPGGSLRLSCAASGFSFSSSYYMCWVRQAPGKGLEWIACIYTSSGSAYYANWAKGRFTISRTSSTTVTLQMNSLRAEDTAVYYCVRNAVGSSYYLYLWGQGTLVTVSS VL: AQVLTQSPSTLSASVGDRVTITCQASQSVAGNNYLSWYQQKPGKAPKLLIYSVSTLASGVPSRFSGSGSGTEFTLTISSLQPDDFATYYCQGYYNDGIWAFGQGTKVEIK | 9.10
2. A048-H1L4 (antibody, V domains shown) VH: EVQLLESGGGLVQPGGSLRLSCAASGFSFSSSYYMCWVRQAPGKGLEWIACIYTSSGSAYYANWAKGRFTISRDNSKNTLYLQMNSLRAEDTAVYYCVRNAVGSSYYLYLWGQGTLVTVSS VL: AQVLTQSPSSLSASVGDRVTITCQASQSVAGNNYLSWYQQKPGKVPKLLIYSVSTLASGVPSRFSGSGSGTDFTLTISSLQPEDVATYYCQGYYNDGIWAFGQGTKVEIK | 9.36
3. A048-H3L3 (antibody, V domains shown) VH: EVQLLESGGGLVQPGGSLRLSCAASGFSFSSSYYMCWVRQAPGKGLEWIACIYTSSGSAYYADSVKGRFTISRDNSKNTLYLQMNSLRAEDTAVYYCVRNAVGSSYYLYLWGQGTLVTVSS VL: DIQMTQSPSSLSASVGDRVTITCQASQSVAGNNYLSWYQQKPGKVPKLLIYSVSTLASGVPSRFSGSGSGTDFTLTISSLQPEDVATYYCQGYYNDGIWAFGQGTKVEIK | 9.08
4. A048-H1L1 (antibody, V domains shown) VH: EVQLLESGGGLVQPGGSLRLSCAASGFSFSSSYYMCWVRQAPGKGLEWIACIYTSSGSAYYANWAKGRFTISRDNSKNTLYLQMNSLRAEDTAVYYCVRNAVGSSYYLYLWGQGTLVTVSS VL: DIQMTQSPSTLSASVGDRVTITCQASQSVAGNNYLSWYQQKPGKAPKLLIYSVSTLASGVPSRFSGSGSGTEFTLTISSLQPDDFATYYCQGYYNDGIWAFGQGTKVEIK | 8.99

Give the measured pEC50 of A048-H1L3 (antibody, V domains shown) VH: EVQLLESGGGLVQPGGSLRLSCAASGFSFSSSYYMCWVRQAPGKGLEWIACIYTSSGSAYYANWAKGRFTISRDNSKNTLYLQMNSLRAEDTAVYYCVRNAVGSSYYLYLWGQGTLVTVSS VL: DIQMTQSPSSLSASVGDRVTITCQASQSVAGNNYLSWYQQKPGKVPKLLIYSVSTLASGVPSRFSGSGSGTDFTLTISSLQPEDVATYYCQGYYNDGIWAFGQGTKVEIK .
8.92
